Data provenance: patent US6552080B1

# System: Phytophthora infestans
# Format: in vivo
# measurement setup: 50 ppm
result type: Fungicidal Activities TLB (C.V.) (%)
# value in %; strip the unit string

Some solved entries appear below for comparison.
- compound: "CNC(=O)C(=NOC)c1ccccc1CON=C(C)c1cccc(OC(F)=C(c2ccc(OC)cc2)C(F)(F)F)c1 [Compound 198]"
  result type: "Fungicidal Activities TLB (C.V.)"
  reading unit: "%"
  quantitative readout: 0
- compound: "CON=C(C(=O)OC)c1ccccc1CON=C(C)c1cccc(OC(F)=C(c2ccc(OC)cc2)C(F)(F)F)c1 [Compound 181]"
  result type: "Fungicidal Activities TLB (C.V.)"
  reading unit: "%"
  quantitative readout: 30

# compound CON=C(C(=O)OC)c1ccccc1CON=C(C)c1cccc(OC(F)=C(c2cccc(C)c2)C(F)(F)F)c1 [Compound 174] ; its Fungicidal Activities TLB (C.V.) = 0

# compound CON=C(C(=O)OC)c1ccccc1CON=C(C)c1cccc(OC(F)=C(c2ccc(C)c(C)c2)C(F)(F)F)c1 [Compound 176] ; its Fungicidal Activities TLB (C.V.) = 70

* * *

# System: Pyricularia oryzae Carvara KA301
# Format: in vivo
# measurement setup: 2 ppm
Assign class by Fungicidal Activities RCV (C.V.): not lower than 90% means yes; lower than 90% means no.

(Q) Entry CNC(=O)C(=NOC)c1ccccc1CON=C(C)c1cccc(OC(F)=C(c2cccc(OC)c2)C(F)(F)F)c1 [Compound 197] : is its Fungicidal Activities RCV (C.V.) no less than 90%?
(A) yes

(Q) Entry CON=C(C(=O)OC)c1ccccc1CON=C(C)c1cccc(OC(F)=C(c2ccc(Br)cc2)C(F)(F)F)c1 [Compound 187] : is its Fungicidal Activities RCV (C.V.) no less than 90%?
(A) yes

(Q) Entry CON=C(C(=O)OC)c1ccccc1CON=C(C)c1cccc(OC(F)=C(c2ccc(Cl)cc2)C(F)(F)F)c1 [Compound 185] : is its Fungicidal Activities RCV (C.V.) no less than 90%?
(A) no

(Q) Entry CNC(=O)C(=NOC)c1ccccc1CON=C(C)c1cccc(OC(F)=C(c2cccc(Cl)c2)C(F)(F)F)c1 [Compound 201] : is its Fungicidal Activities RCV (C.V.) no less than 90%?
(A) yes

(Q) Entry CON=C(C(=O)OC)c1ccccc1CON=C(C)c1cccc(OC(F)=C(c2ccccc2)C(F)(F)F)c1 [Compound 173] : is its Fungicidal Activities RCV (C.V.) no less than 90%?
(A) yes

(Q) Entry CNC(=O)C(=NOC)c1ccccc1CON=C(C)c1cccc(OC(F)=C(c2cc(C)cc(C)c2)C(F)(F)F)c1 [Compound 194] : is its Fungicidal Activities RCV (C.V.) no less than 90%?
(A) yes

(Q) Entry CON=C(C(=O)OC)c1ccccc1CON=C(C)c1cccc(OC(F)=C(c2cccc(OC)c2)C(F)(F)F)c1 [Compound 180] : is its Fungicidal Activities RCV (C.V.) no less than 90%?
(A) no

* * *

# Lookup of reported BPM (Fungicidal Activities, C.V.) keyed by entry
# Test system: Erysiphae graminis
# assay explanation: Fungicidal activity against Barley Powdery Mildew (BPM) disease
# Type: in vivo
# measurement setup: Barley Powdery Mildew; concentration 2 ppm
# value in %; strip the unit string

Some solved entries appear below for comparison.
- compound: "COC=C(C(=O)OC)c1ccccc1CON=C(C)c1cccc(OC(F)=C(c2cccc(C)c2)C(F)(F)F)c1 [Compound 151]"
  target: "Erysiphae graminis"
  BPM (Fungicidal Activities, C.V.) [%]: 98
- compound: "CON=C(C(=O)OC)c1ccccc1CON=C(C)c1cccc(OC(F)=Cc2cccc(OC)c2)c1 [Compound 71]"
  target: "Erysiphae graminis"
  BPM (Fungicidal Activities, C.V.) [%]: 100
- compound: "CON=C(C(=O)OC)c1ccccc1CON=Cc1cccc(OC(F)=Cc2ccc(C)cc2)c1 [Compound 25]"
  target: "Erysiphae graminis"
  BPM (Fungicidal Activities, C.V.) [%]: 93

# compound CNC(=O)C(=NOC)c1ccccc1CON=C(C)c1cccc(OC(F)=Cc2ccc(F)cc2)c1 [Compound 82] ; its BPM (Fungicidal Activities, C.V.) = 100
